From: FireProtDB (doi:10.1021/bi00146a008)

B1: Lysozyme C, P61626 (parent)
chain: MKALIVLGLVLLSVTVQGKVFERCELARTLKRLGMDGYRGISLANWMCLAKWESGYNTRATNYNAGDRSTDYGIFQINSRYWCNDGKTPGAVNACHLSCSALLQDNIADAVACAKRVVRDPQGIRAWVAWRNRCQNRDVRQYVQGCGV

Variants of: B1
Details: Homo sapiens; pH 2.8; Thermal; DSC; glycine-HCl 50 mM; reversible: yes; structure 1LZ1; whole UniProt chain shown
endpoint-name: heat capacity change of unfolding

- variant-label: "P89G P121G"
  heat capacity change of unfolding: "1.58 kcal/mol/K"
- variant-label: "P89G"
  heat capacity change of unfolding: "1.58 kcal/mol/K"
- variant-label: "V128P"
  heat capacity change of unfolding: "1.57 kcal/mol/K"

-- ask // lookup heat capacity change of unfolding for `P121G`
-- reply 1.58 kcal/mol/K

-- ask # input variant: `A65P` ; wanted: its heat capacity change of unfolding
-- reply 1.56 kcal/mol/K

-- ask Any idea what its heat capacity change of unfolding is? The variant is `D109P`
-- reply 1.57 kcal/mol/K
